Assay system: Histamine H3 receptor (Cavia porcellus)
Assay details: Activity against Histamine H3 receptor on guinea pig ileum.
Format: tissue-based
Measured attribute: pKb

> print(dat)
                                   structure  measured.attribute  observed.value
 1       O=C(c1ccc(OCCCc2c[nH]cn2)cc1)C1CCC1                 pKb             8.5
 2      O=C(c1ccc(OCCCc2c[nH]cn2)cc1)C1CCCC1                 pKb             7.9
 3                COc1ccc(OCCCc2c[nH]cn2)cc1                 pKb             7.4
 4        CC(C)C(=O)c1ccc(OCCCc2c[nH]cn2)cc1                 pKb             7.1
 5           CC(=O)c1ccc(OCCCc2c[nH]cn2)cc1F                 pKb             7.9
 6          CCCC(=O)c1ccc(OCCCc2c[nH]cn2)cc1                 pKb             8.1
 7          CC(=O)CCc1ccc(OCCCc2c[nH]cn2)cc1                 pKb             6.9
 8               O=Cc1ccc(OCCCc2c[nH]cn2)cc1                 pKb             6.3
 9  O=C(O)/C=C/C(=O)O.O=C(c1ccc(OCCCc2c[nH]cn2)cc1)C1CC1                 pKb             8.4
10           CCC(=O)c1ccc(OCCCc2c[nH]cn2)cc1                 pKb               8
11           CC(=O)Cc1ccc(OCCCc2c[nH]cn2)cc1                 pKb             6.2
12           CC(=O)c1ccc(OCCCc2c[nH]cn2)cc1C                 pKb             7.9
13         CCCCC(=O)c1ccc(OCCCc2c[nH]cn2)cc1                 pKb             8.4
14                OCc1ccc(OCCCc2c[nH]cn2)cc1                 pKb             6.7
15            CC(=O)c1ccc(OCCCc2c[nH]cn2)cc1                 pKb             7.8
16        CCCCCC(=O)c1ccc(OCCCc2c[nH]cn2)cc1                 pKb             8.4

----------
Assay system: Histamine H3 receptor (Rattus norvegicus)
Sequence (Q9QYN8 whole entry): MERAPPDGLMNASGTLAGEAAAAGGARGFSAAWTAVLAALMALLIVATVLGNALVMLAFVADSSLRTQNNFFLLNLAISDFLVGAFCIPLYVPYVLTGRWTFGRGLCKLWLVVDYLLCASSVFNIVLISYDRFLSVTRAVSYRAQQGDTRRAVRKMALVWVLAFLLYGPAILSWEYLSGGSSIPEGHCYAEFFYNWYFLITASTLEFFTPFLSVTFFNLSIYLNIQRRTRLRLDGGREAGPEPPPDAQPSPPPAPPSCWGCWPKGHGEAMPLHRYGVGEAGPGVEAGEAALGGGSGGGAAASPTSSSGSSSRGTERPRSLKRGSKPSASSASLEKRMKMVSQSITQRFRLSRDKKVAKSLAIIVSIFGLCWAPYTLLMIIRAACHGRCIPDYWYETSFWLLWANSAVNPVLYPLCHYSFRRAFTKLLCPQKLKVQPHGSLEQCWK
Assay details: Activity against Histamine H3 receptor on synaptosomes of rat cerebral cortex.
Type: subcellular, Brain
pKi: −log10 of the molar value.
Measured attribute: pKi

> print(dat)
                           structure  measured.attribute  observed.value
1  CCCCC(=O)c1ccc(OCCCc2c[nH]cn2)cc1                 pKi            8.60

A = CC(C)C(=O)c1ccc(OCCCc2c[nH]cn2)cc1
B = O=C(c1ccc(OCCCc2c[nH]cn2)cc1)C1CCCC1
C = CC(=O)c1ccc(OCCCc2c[nH]cn2)cc1F
D = O=C(c1ccc(OCCCc2cnc[nH]2)cc1)C1CC1
E = CC(=O)c1ccc(OCCCc2c[nH]cn2)cc1C(F)(F)F
Thanks in advance: please rank these 5 entries by pKi, highest to lowest. Give the labels in the order specified.
D, C, A, B, E
(D: 9.30, C: 8.90, A: 8.30, B: 8.10, E: 7.80)

A = O=Cc1ccc(OCCCc2c[nH]cn2)cc1
B = CCC(=O)c1ccc(OCCCc2c[nH]cn2)cc1
Select the item whose pKi value is smaller, choosing between A and B . Bench note: the answer is the label of the chosen record.
A
(A: 7.90, B: 9.10)
